Please go through the items and note down their receptor occupancy at 10 µM.
# MEASUREMENT_TARGET: NLuc::LmxCLK1 (Leishmania mexicana, UniProt E9AMP2)
# Sequence (E9AMP2 entry or part of it): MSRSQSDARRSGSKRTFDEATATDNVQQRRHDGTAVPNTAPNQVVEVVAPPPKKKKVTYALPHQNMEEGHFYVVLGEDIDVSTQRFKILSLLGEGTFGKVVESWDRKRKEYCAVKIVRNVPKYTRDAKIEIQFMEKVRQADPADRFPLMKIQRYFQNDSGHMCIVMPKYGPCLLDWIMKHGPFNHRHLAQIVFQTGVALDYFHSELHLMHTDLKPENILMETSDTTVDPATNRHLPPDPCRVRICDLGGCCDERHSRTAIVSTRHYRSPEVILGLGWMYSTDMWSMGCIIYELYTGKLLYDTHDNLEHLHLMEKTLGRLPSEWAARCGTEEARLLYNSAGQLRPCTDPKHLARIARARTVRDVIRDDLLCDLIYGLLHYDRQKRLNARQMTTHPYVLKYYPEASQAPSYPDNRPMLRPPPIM
# EXPERIMENTAL_DETAILS: cell-based
# Type: cell-based
# TEST_CONDITIONS: read-out: Target occupancy Average
Write the figure, then the unit, nothing else.

Quick one: receptor occupancy at 10 µM of C[C@@H]1COC(Nc2ccc3ncnc(Nc4ccc(OCc5nccs5)c(Cl)c4)c3c2)=N1 ?
-0.8%

Quick one: receptor occupancy at 10 µM of O=C(Nc1ccc(OC(F)(F)F)cc1)c1sccc1NCc1ccnc2ccccc12 ?
0.1%

Quick one: receptor occupancy at 10 µM of Cc1cnc(NC(=O)Nc2cc(Br)c(C)cc2OC[C@@H]2CNCCO2)cn1 ?
-11.8%

Quick one: receptor occupancy at 10 µM of Cc1[nH]c(/C=C2\C(=O)Nc3ccc(S(=O)(=O)N(C)c4cccc(Cl)c4)cc32)c(C)c1C(=O)N1CCN(C)CC1 ?
-6.7%

Quick one: receptor occupancy at 10 µM of CC(C)NC[C@@H](C(=O)N1CCN(c2ncnc3c2[C@H](C)C[C@H]3O)CC1)c1ccc(Cl)cc1 ?
0.3%

Quick one: receptor occupancy at 10 µM of O=C(/C=C/c1ccc(O)c(O)c1)c1ccc(O)cc1O ?
-10.8%

Quick one: receptor occupancy at 10 µM of O=C1c2ccc(Nc3ccc(F)cc3F)cc2CCc2ccc(OC[C@H](O)CO)cc21 [Skepinone-L] ?
-1.4%

Quick one: receptor occupancy at 10 µM of O=C(NC1CCNCC1)c1[nH]ncc1NC(=O)c1c(Cl)cccc1Cl ?
-13.8%

====

# MEASUREMENT_TARGET: NLuc::LmxCLK1 (Leishmania mexicana, UniProt E9AMP2)
# EXPERIMENTAL_DETAILS: In vitro BRET with purified NLuc::LmxCLK1
# Format: binding
pEC50: −log10 of the molar value.
VALUE_TYPE: pEC50

Quick one: pEC50 of Cc1ccc(C(=O)Nc2ccc(CN3CCN(CCCNC(=O)CCC4=[N+]5C(=Cc6ccc(-c7ccc[nH]7)n6[B-]5(F)F)C=C4)CC3)c(C(F)(F)F)c2)cc1C#Cc1cnc2[nH]ncc2c1 [SV363] ?
< 6.00

====

# MEASUREMENT_TARGET: UniProt:E9AMP2
# EXPERIMENTAL_DETAILS: biochemical
# Assay type: binding
# TEST_CONDITIONS: DSF, 10 µM compound, 2 µM LmxCLK1, mean of two runs; read-out: ΔTm Average
Where a name gives a salt, the structure may show the parent alone.
Field 'label' (enum: Yes / No). Set to Yes when ΔTm at 10 µM is strictly under -0.1 °C; else No.

Please indicate whether the reported ΔTm at 10 µM of COc1cc2ncnc(Oc3cccc(NC(=O)Nc4cc(C(C)(C)C(F)(F)F)on4)c3)c2cc1OC [CEP-32496] is strictly below -0.1 °C.
Yes

Please indicate whether the reported ΔTm at 10 µM of [H]/N=C(/N)N/C(=N/[H])NCCc1ccccc1 [Phenformin HCl] is strictly below -0.1 °C.
Yes

Please indicate whether the reported ΔTm at 10 µM of Cc1cc(C(=O)NOCCO)c(Nc2ccc(I)cc2F)n(C)c1=O [AZD8330] is strictly below -0.1 °C.
No

Please indicate whether the reported ΔTm at 10 µM of CCS(=O)(=O)Nc1ccc2c(c1)/C(=C(/Nc1ccc(CN3CCCCC3)cc1)c1ccccc1)C(=O)N2 [Hesperadin] is strictly below -0.1 °C.
No

Please indicate whether the reported ΔTm at 10 µM of Cn1cnc(N)c2ncnc1-2 [3-Methyladenine] is strictly below -0.1 °C.
No

Please indicate whether the reported ΔTm at 10 µM of CNCc1ccc(-c2cc(-c3nc(-c4ccc(S(=O)(=O)C(C)C)cc4)cnc3N)on2)cc1 [VE-822] is strictly below -0.1 °C.
No

Please indicate whether the reported ΔTm at 10 µM of C=CC(=O)Nc1cc(Nc2nccc(-c3cn(C)c4ccccc34)n2)c(OC)cc1N(C)CCN(C)C [AZD9291] is strictly below -0.1 °C.
Yes
